B1: tRNA (parent)
chain: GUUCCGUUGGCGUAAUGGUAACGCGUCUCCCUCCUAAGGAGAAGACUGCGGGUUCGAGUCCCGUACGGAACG

- Variants of: B1
- protocol.details: yeast fitness relative to wild type (ratio to wild type); higher = fitter; tRNA-Arg(CCU), competitive growth, 37 C, YPD
Fewer inactive variants are shown than the library holds.
assay.readout: yeast fitness

[
  {
    "sequence.chain": "GUUCCAUUGGCGUAAUGGUAACGCGUGUCCCUCGUAAGGAGAAGACUGCGGGUUCGAGUCCCGUCCGGAACG",
    "assay.readout": "yeast fitness",
    "recorded.result": "≤ 0.5"
  },
  {
    "sequence.chain": "GUUCCGCUGGCGUAAUGGUAACGCGUUUCCCUGGUAAGGAGAAAACUGCAGAUUCGAGUCCCGUACGGAACG",
    "assay.readout": "yeast fitness",
    "recorded.result": "≤ 0.5"
  },
  {
    "sequence.chain": "GUUCCGUUGGUGUAAUGGUAAGGCGUCUGCCUCCUAAGGAAAAGACUGCGGGUUCGAGUCCCGUACGGAACG",
    "assay.readout": "yeast fitness",
    "recorded.result": "≤ 0.5"
  },
  {
    "sequence.chain": "GUUCGGUUGGCGUAAUGGUAACGCGUCUCCCUCCCAAGGAGAAGACUGGGGGUUCGAGUCCCGUACGGAACG",
    "assay.readout": "yeast fitness",
    "recorded.result": "≤ 0.5"
  },
  {
    "sequence.chain": "GUUCCGUUGGCGUAAUGGUAACGCGUCUCCCUCCUAAGGAGAAGGCUGCGGGUUAAAGUCCCGUACAGAACG",
    "assay.readout": "yeast fitness",
    "recorded.result": "≤ 0.5"
  }
]

Recorded yeast fitness for GUUCCGCUGGCGUAAUGGUAACGCGUCUCCCGCCUAAGGAGAAGACUGCGGGUUCUAGUCCCGUACGGAACG , please? ≤ 0.5

yeast fitness lookup needed for GUUCCGUUGGCGUAAUGGGAACGCGUCUCCCUCCUAAGGAGACGACUGCGGGCUGGAGUCCCGUACCGCACG , thanks. ≤ 0.5

What yeast fitness value was documented for this variant, GUUCGGGUGGCGUAAUGGUAACGCGUCUCCCUGCUAAGGAGAAGACUGCGGGUUCGAGUCCCGUACGGAUCG ? ≤ 0.5
